measurement type: melting point

compound	readout value
CNC(=O)c1cc2cnc(N3CCC[C@H]3CO)nc2n(Cc2ccc(OC)c(Cl)c2)c1=O	191 to 191.5 °C
COc1ccc(Cn2c(=O)ccc3cnc(N)nc32)cc1Cl	234 to 242 °C
COc1ccc(Cn2c(=O)ccc3cnc(SC)nc32)cc1Cl	189 to 190 °C
COc1ccc(Cn2c(=O)ccc3cnc(N4CCc5cncnc5C4)nc32)cc1Cl	200 to 201 °C
COC(=O)c1cc2cnc(N3CCC[C@H]3CO)nc2n(Cc2ccccn2)c1=O	199 to 201 °C
COc1ccc(Cn2c(=O)ccc3cnc(N4CCn5ccnc5C4)nc32)cc1Cl	158 to 159 °C
COc1ccc(Cn2c(=O)ccc3cnc(N4CCOC(CO)C4)nc32)cc1Cl (stereo not shown)	207 to 209 °C
COc1ccc(Cn2c(=O)ccc3cnc(N4CCC[C@H]4CO)nc32)cc1OC	132 °C
O=c1ccc2cnc(N3CCC[C@H]3CO)nc2n1Cc1ncccn1	150 to 151 °C
COc1ccc(Cn2c(=O)c(C(=O)NCCO)cc3cnc(N4CCC[C@H]4CO)nc32)cc1Cl	207 to 210 °C
